The reported numbers originate from paper PMC6445168.

Task for the reader: assign each of the following compounds its reported CC50 at 72 h.
assay: Cytotoxicity evaluation, MTT assay; assay type: cell-based, human; conditions: human, HepG2 cells (hepatocarcinoma cell line, ATCC HB-8065); HepG2, 72 h incubation, mean ± SD of three independent experiments
Reply with a number, then the unit it belongs to.

Answered examples (4):
> print(dat)
                              smiles.string  reported.property   result
1  CCOc1ccn2c1c(-c1ccc(CNCCCN(C)CCCNCc3ccc(-c4nc5ccccc5n5ccc(OCC)c45)cc3)cc1)nc1ccccc12       CC50 at 72 h  1950 nM
2  c1cc(CNCCCN2CCN(CCCNCc3cccc(-c4nc5ccccc5n5cccc45)c3)CC2)cc(-c2nc3ccccc3n3cccc23)c1       CC50 at 72 h  2030 nM
3  COc1ccc2nc(-c3cccc(CNCCCN(CCCNCc4cccc(-c5nc6ccc(OC)cc6n6cccc56)c4)CCCNCc4cccc(-c5nc6ccc(OC)cc6n6cccc56)c4)c3)c3cccn3c2c1       CC50 at 72 h  1720 nM
4  CN(CCCNCc1cccc(-c2nc3ccccc3n3cccc23)c1)CCCNCc1cccc(-c2nc3ccccc3n3cccc23)c1       CC50 at 72 h  1940 nM

Provide reported CC50 at 72 h for each item, in the same order as listed.
1. COc1ccc2c(c1)nc(-c1ccc(CNCCCN3CCN(CCCNCc4ccc(-c5nc6cc(OC)ccc6n6cccc56)cc4)CC3)cc1)c1cccn12
2. COc1ccc2nc(-c3ccc(CNCCCN(C)CCCNCc4ccc(-c5nc6ccc(OC)cc6n6cccc56)cc4)cc3)c3cccn3c2c1

1460 nM
3380 nM

----------
assay: Cytotoxicity evaluation, MTT assay; type: cell-based, human; details: human, HepG2 cells (hepatocarcinoma cell line, ATCC HB-8065); HepG2, 72 h incubation, mean ± SD of three independent experiments
Reported property: CC50 at 72 h (nM)
Numbers only, in nM.

The following compounds have reported results that may help.
Smiles string	Result number
COc1cccc2nc(-c3ccc(CNCCCN4CCN(CCCNCc5ccc(-c6nc7cccc(OC)c7n7cccc67)cc5)CC4)cc3)c3cccn3c12	1330
COc1ccc2nc(-c3cccc(CNCCCN4CCN(CCCNCc5cccc(-c6nc7ccc(OC)cc7n7cccc67)c5)CC4)c3)c3cccn3c2c1	1570
COc1ccc2nc(-c3cccc(CNCCOCCOCCOCCNCc4cccc(-c5nc6ccc(OC)cc6n6cccc56)c4)c3)c3cccn3c2c1	1540
c1ccc2c(c1)nc(-c1ccc(CNCCCNCCCNCc3ccc(-c4nc5ccccc5n5cccc45)cc3)cc1)c1cccn12	1810
c1ccc2c(c1)nc(-c1ccc(CNCCCN3CCN(CCCNCc4ccc(-c5nc6ccccc6n6cccc56)cc4)CC3)cc1)c1cccn12	1250
COc1ccc2nc(-c3ccc(CNCCCN4CCN(CCCNCc5ccc(-c6nc7ccc(OC)cc7n7cccc67)cc5)CC4)cc3)c3cccn3c2c1	2140

Answer for every listed entry: what is its CC50 at 72 h? The entries follow.
1. COc1cccc2nc(-c3ccc(CNCCCN(C)CCCNCc4ccc(-c5nc6cccc(OC)c6n6cccc56)cc4)cc3)c3cccn3c12
2. CCOc1ccn2c1c(-c1ccc(CNCCCN3CCN(CCCNCc4ccc(-c5nc6ccccc6n6ccc(OCC)c56)cc4)CC3)cc1)nc1ccccc12
3. CN(CCCNCc1ccc(-c2nc3ccccc3n3cccc23)cc1)CCCNCc1ccc(-c2nc3ccccc3n3cccc23)cc1
4. COc1ccc2c(c1)nc(-c1ccc(CNCCCN(C)CCCNCc3ccc(-c4nc5cc(OC)ccc5n5cccc45)cc3)cc1)c1cccn12
5. COc1ccc2nc(-c3cccc(CNCCCN(C)CCCNCc4cccc(-c5nc6ccc(OC)cc6n6cccc56)c4)c3)c3cccn3c2c1
6. c1ccc2c(c1)cc1c(-c3ccc(CNCCCN4CCN(CCCNCc5ccc(-c6nc7ccccc7n7c6cc6ccccc67)cc5)CC4)cc3)nc3ccccc3n12
7. COc1ccc2c(c1)nc(-c1ccc(CNCCCN(CCCNCc3ccc(-c4nc5cc(OC)ccc5n5cccc45)cc3)CCCNCc3ccc(-c4nc5cc(OC)ccc5n5cccc45)cc3)cc1)c1cccn12

[2440, 1480, 1560, 2570, 1500, 1560, 1660]

----------
Task for the reader: assign each of the following molecules its reported pIC50.
tested on: P. falciparum CQ-sensitive strain 3D7; test: In vitro antiplasmodial activity, SYBR Green I fluorescence-based method, 3D7 strain; assay type: cell-based, Plasmodium falciparum; conditions: Plasmodium falciparum, 3D7, 48 h, chloroquine-sensitive strain 3D7, 48 h incubation; read-out: P. falciparum strains IC50 values, 3D7
Give bare numbers, as −log10 of the molar value.

> print(dat)
                              smiles.string                                    tgt  result.number
1  COc1cccc2nc(-c3ccc(CNCCCN(C)CCCNCc4ccc(-c5nc6cccc(OC)c6n6cccc56)cc4)cc3)c3cccn3c12  P. falciparum CQ-sensitive strain 3D7           6.60
2  c1ccc(-c2cc3c(-c4ccc(CNCCCN5CCN(CCCNCc6ccc(-c7nc8ccccc8n8cc(-c9ccccc9)cc78)cc6)CC5)cc4)nc4ccccc4n3c2)cc1  P. falciparum CQ-sensitive strain 3D7           5.05
3  c1cc(CNCCCN2CCN(CCCNCc3cccc(-c4nc5ccccc5n5cccc45)c3)CC2)cc(-c2nc3ccccc3n3cccc23)c1  P. falciparum CQ-sensitive strain 3D7           6.43
4  COc1cccc2nc(-c3ccc(CNCCCN4CCN(CCCNCc5ccc(-c6nc7cccc(OC)c7n7cccc67)cc5)CC4)cc3)c3cccn3c12  P. falciparum CQ-sensitive strain 3D7           5.89
5  COc1ccc2nc(-c3ccc(CNCCCN(C)CCCNCc4ccc(-c5nc6ccc(OC)cc6n6cccc56)cc4)cc3)c3cccn3c2c1  P. falciparum CQ-sensitive strain 3D7           5.23

Turning now to a further record.
Requested field: pIC50. Item: CCOc1ccn2c1c(-c1ccc(CNCCCN(C)CCCNCc3ccc(-c4nc5ccccc5n5ccc(OCC)c45)cc3)cc1)nc1ccccc12
6.59

----------
Where a name gives a salt, the structure may show the parent alone.
Please respond with reported melting point for every item in the list.

Worked examples, 5 compounds total:
Compound	Result
COc1ccc2nc(-c3ccc(CNCCCN(C)CCCNCc4ccc(-c5nc6ccc(OC)cc6n6cccc56)cc4)cc3)c3cccn3c2c1 (as salt: ammonium) [1f]	240 to 242 °C
COc1ccc2nc(-c3cccc(CNCCCN4CCN(CCCNCc5cccc(-c6nc7ccc(OC)cc7n7cccc67)c5)CC4)c3)c3cccn3c2c1 (as salt: ammonium) [1p]	234 to 237 °C
CCOc1ccn2c1c(-c1ccc(CNCCCN(C)CCCNCc3ccc(-c4nc5ccccc5n5ccc(OCC)c45)cc3)cc1)nc1ccccc12 (as salt: ammonium) [1j]	192 to 195 °C
CN(CCCNCc1ccc(-c2nc3ccccc3n3cccc23)cc1)CCCNCc1ccc(-c2nc3ccccc3n3cccc23)cc1 (as salt: ammonium) [1b]	245 to 248 °C
COc1ccc2nc(-c3cccc(CNCCOCCOCCOCCNCc4cccc(-c5nc6ccc(OC)cc6n6cccc56)c4)c3)c3cccn3c2c1 (as salt: ammonium) [1u]	141 to 144 °C

// each listed compound needs a value for melting point
1. CN(CCCNCc1cccc(-c2nc3ccccc3n3cccc23)c1)CCCNCc1cccc(-c2nc3ccccc3n3cccc23)c1 (as salt: ammonium) [1m]
2. c1ccc2c(c1)nc(-c1ccc(CNCCCN3CCN(CCCNCc4ccc(-c5nc6ccccc6n6cccc56)cc4)CC3)cc1)c1cccn12 (as salt: ammonium) [1c]

209 to 211 °C
> 260 °C

// input: 2 compounds below; output: melting point for each
1. COc1ccc2nc(-c3ccc(CNCCCN4CCN(CCCNCc5ccc(-c6nc7ccc(OC)cc7n7cccc67)cc5)CC4)cc3)c3cccn3c2c1 (as salt: ammonium) [1g]
2. COc1ccc2nc(-c3cccc(CNCCCN(C)CCCNCc4cccc(-c5nc6ccc(OC)cc6n6cccc56)c4)c3)c3cccn3c2c1 (as salt: ammonium) [1o]

["236 to 239 °C", "188 to 191 °C"]

Batch lookup, melting point per entry.
1. COc1cccc2nc(-c3ccc(CNCCCN(C)CCCNCc4ccc(-c5nc6cccc(OC)c6n6cccc56)cc4)cc3)c3cccn3c12 (as salt: ammonium) [1h]
2. c1ccc2c(c1)cc1c(-c3ccc(CNCCCN4CCN(CCCNCc5ccc(-c6nc7ccccc7n7c6cc6ccccc67)cc5)CC4)cc3)nc3ccccc3n12 (as salt: ammonium) [1q]
3. CCOc1ccn2c1c(-c1ccc(CNCCCN3CCN(CCCNCc4ccc(-c5nc6ccccc6n6ccc(OCC)c56)cc4)CC3)cc1)nc1ccccc12 (as salt: ammonium) [1k]
4. c1ccc2c(c1)nc(-c1ccc(CNCCCNCCCNCc3ccc(-c4nc5ccccc5n5cccc45)cc3)cc1)c1cccn12 (as salt: ammonium) [1a]
5. COc1ccc2nc(-c3cccc(CNCCCN(CCCNCc4cccc(-c5nc6ccc(OC)cc6n6cccc56)c4)CCCNCc4cccc(-c5nc6ccc(OC)cc6n6cccc56)c4)c3)c3cccn3c2c1 (as salt: ammonium) [1t]

1. 160 to 162 °C
2. > 260 °C
3. 218 to 220 °C
4. > 260 °C
5. 184 to 187 °C

Using the record for COc1ccc2c(c1)nc(-c1ccc(CNCCCN(CCCNCc3ccc(-c4nc5cc(OC)ccc5n5cccc45)cc3)CCCNCc3ccc(-c4nc5cc(OC)ccc5n5cccc45)cc3)cc1)c1cccn12 (as salt: ammonium) [1s] , report its melting point.
192 to 194 °C
